biological target: human PAH with the R408W mutation (Homo sapiens, UniProt P00439, R408W); construct: expressed in transfected cells; test: Cell Based Phenylalanine Flux Assay; settings: A375 cells expressing human R408W PAH; 24 hrs compound incubation; 13C-Tyrosine by LC-MS; average where tested multiple times; read-out: AC50
Sequence (P00439 whole entry R408W): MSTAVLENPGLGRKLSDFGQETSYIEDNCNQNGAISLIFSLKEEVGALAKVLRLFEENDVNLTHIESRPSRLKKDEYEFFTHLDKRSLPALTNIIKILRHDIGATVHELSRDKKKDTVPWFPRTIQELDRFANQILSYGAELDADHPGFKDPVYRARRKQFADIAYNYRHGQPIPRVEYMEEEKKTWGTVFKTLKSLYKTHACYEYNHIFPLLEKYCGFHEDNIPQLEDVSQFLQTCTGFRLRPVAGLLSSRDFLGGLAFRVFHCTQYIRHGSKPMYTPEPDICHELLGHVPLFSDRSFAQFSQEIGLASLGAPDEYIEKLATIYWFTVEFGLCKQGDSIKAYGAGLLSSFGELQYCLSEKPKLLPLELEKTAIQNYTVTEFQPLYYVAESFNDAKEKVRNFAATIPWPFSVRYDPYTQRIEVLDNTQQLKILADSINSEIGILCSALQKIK
OBSERVABLE: AC50

Some solved entries appear below for comparison.
# MOLECULE, VALUE
records = [
    ("CC(O)c1nc(Br)c(C(=O)N2CCc3[nH]cnc3[C@H]2c2ccc3ccccc3n2)o1 (single isomer, unassigned) [Example 133]", "< 500 nM"),
    ("Cn1nccc1C(=O)N1CCc2[nH]cnc2C1c1ccc2ccccc2n1 (stereo in doubt) [Example 94]", "1000 to 5000 nM"),
    ("O=C(c1cnc(-c2ccccn2)s1)N1CCc2[nH]cnc2[C@H]1c1cc2ccccc2nn1", "500 to 1000 nM"),
]

INPUT: Entry O=C(c1oc(-c2ccccn2)nc1C1CC1)N1CCCc2[nH]cnc2[C@H]1c1cc2ccccc2cn1 (single isomer, unassigned) : reported AC50 = ?
OUTPUT: 1000 to 5000 nM

INPUT: So what does the record say about AC50 for CC(C)(O)c1nc(Br)c(C(=O)N2CCc3[nH]cnc3C2c2ccc3ccccc3n2)o1 (stereo in doubt) [Example 97] ?
OUTPUT: < 500 nM

INPUT: For the molecule shown here, O=C(c1nnc(-c2ccc(F)cc2)o1)N1CCc2[nH]cnc2C1c1ccc2ccccc2n1 (stereo in doubt) , give the reported AC50.
OUTPUT: < 500 nM

INPUT: Quick one: AC50 for CN(C)C(=O)c1nnc(N2CCc3[nH]cnc3[C@H]2c2cc3ccccc3cn2)o1 ?
OUTPUT: 500 to 1000 nM

====

target: human PAH with the R408W mutation (Homo sapiens, UniProt P00439, R408W); construct: expressed in transfected cells; assay: Cell Based Phenylalanine Flux Assay; details: A375 cells expressing human R408W PAH; 24 hrs compound incubation; 13C-Tyrosine by LC-MS; average where tested multiple times; read-out: AC50
Where a name gives a salt, the structure may show the parent alone.
OBSERVABLE: AC50

# COMPOUND, AC50
data = [
    ("CC(O)c1nc(Cl)c(C(=O)N2CCc3[nH]cnc3[C@H]2c2ccc3ccccc3n2)o1 (single isomer, unassigned) [Example 138]", "< 0.5 µM"),
    ("Cc1nc([C@@H](C)O)oc1C(=O)N1CCc2[nH]cnc2C1c1ccc2ccccc2n1 (stereo in doubt) [Example 111]", "0.5 to 1 µM"),
    ("C[C@@H]1CN(C(=O)c2nnc(C(C)(C)F)o2)[C@H](c2cc3ccccc3cn2)c2nc[nH]c21 [Example 501]", "< 0.5 µM"),
    ("O=C(c1ccnn1C(F)F)N1CCc2[nH]cnc2C1c1ccc2ccccc2n1 (stereo in doubt) [Example 82]", "> 5 µM"),
    ("CC(C)(C)c1ncc(C(=O)N2CCc3[nH]cnc3[C@@H]2c2cn3ccccc3n2)s1 [Example 246]", "> 5 µM"),
]

INPUT: Give the measured AC50 of Cc1nnc(CCC(=O)N2CCc3[nH]cnc3[C@H]2c2cc3ccccc3cn2)o1 [Example 345] .
OUTPUT: 0.5 to 1 µM

INPUT: // returns reported AC50 for input Cc1nc(C2CC2)oc1C(=O)N1CCc2[nH]cnc2C1c1ccc2ccccc2n1 (stereo in doubt) [Example 36]
OUTPUT: > 5 µM

INPUT: Fill in: AC50 of CC(C)(F)c1ncc(C(=O)N2CCc3[nH]cnc3[C@H]2c2cc3ccccc3cn2)s1 [Example 332] is ___
OUTPUT: < 0.5 µM

INPUT: Quick one: AC50 of CC(O)c1nc(Cl)c(C(=O)N2CCc3[nH]cnc3[C@@H]2c2ccc3ccccc3n2)o1 (single isomer, unassigned) [Example 135] ?
OUTPUT: > 5 µM

INPUT: Any idea what its AC50 is? The compound is Cc1nc(C(C)(C)O)oc1C(=O)N1CCc2[nH]cnc2[C@@H]1c1ncc2ccccc2n1 [Example 142, hydrochloride]
OUTPUT: > 5 µM

INPUT: Fill in the blank: the reported AC50 of O=C(c1nnc(-c2ccc(F)cn2)o1)N1CCc2[nH]cnc2C1c1ccc2ccccc2n1 (stereo in doubt) [Example 34] is ____.
OUTPUT: > 5 µM
